test system: K. pneumoniae ATCC BAA-2342; assay type: cell-based, Klebsiella pneumoniae
Ends that are not written are not given here.
attribute.measured: MBC, K. pneumoniae (ATCC BAA-2342) (µM)

| substance | unit.annotation | censoring.operator | endpoint.value |
| --- | --- | --- | --- |
| GLLSVLKSLKKIVPHVVPKIAEKL-NH2 [Caerin 1.1-LC 7.11.19K] | µM | = | 4 |
| GLLSVLGSLKLIVPHVVPLIAEKL-NH2 [Caerin 1.1-LC] | µM | = | 64 |
| GLLSVLGSLKLIVPHLLPLIAEKL-NH2 [Caerin 1.1-LC PHLLP] | µM | = | 16 |
| GLLSVLGSLKLIVPHWWPLIAEKL-NH2 [Caerin 1.1-LC PHWWP] | µM | > | 128 |

====

tested on: Gram-positive bacteria; test: Geometric mean MIC and therapeutic index, Gram-positive; format: cell-based; conditions: geometric mean of MICs
Ends that are not written are not given here.

| substance | unit.annotation | GM MIC Gram-Positive |
| --- | --- | --- |
| GLLSVLGSLKLIVPGGGPLIAEKL-NH2 [Caerin 1.1-LC PGGGP] | µM | 256 |
| GLLSVLKSLKKIVPHVVPKIAEKL-NH2 [Caerin 1.1-LC 7.11.19K] | µM | 3.28 |
| GLLSVLGSLKKIVPHVVPLIAKKL-NH2 [Caerin 1.1-LC 11K.22K] | µM | 3.17 |
| GLLSVLGSLKKWVPHVVPLIAKKL-NH2 [Caerin 1.1-LC 11K.12K.12W] | µM | 2 |
| GLLSVLGSLKLIVPHIIPLIAEKL-NH2 [Caerin 1.1-LC PHIIP] | µM | 8 |
| GLLSVLGSLKKIVPKAVPKIAEKL-NH2 [Caerin 1.1-LC 11K.19K.PKAVP] | µM | 161.5 |
| GLLSVLGSLKKIVPHVVPLIAEKL-NH2 [Caerin 1.1-LC 11K] | µM | 20.1 |
| GLLSVLGSLKLIVPHLLPLIAEKL-NH2 [Caerin 1.1-LC PHLLP] | µM | 6.56 |
| GLLSVLGSLKLIVAHVVALIAEKL-NH2 [Caerin 1.1-LC 2P-2A] | µM | 256 |

====

test system: horse red blood cells; assay: Haemolysis assay; type: cell-based; conditions: concentration inducing 10% haemolysis of horse erythrocytes; 4% (v/v) in PBS, 2 h, 37 °C, absorbance 570 nm; no haemolysis at maximum testing concentration (128 μM) recorded as 256 μM
Ends that are not written are not given here.
Quick rule for you: HC10 at 40 µM or higher means criterion met, lower means criterion not met.

| substance | class.assignment |
| --- | --- |
| GLLSVLGSLKKIVPHVVPLIAEKL-NH2 [Caerin 1.1-LC 11K] | criterion not met |
| GLLSVLGSLKLIVPGGGPLIAEKL-NH2 [Caerin 1.1-LC PGGGP] | criterion met |
| GLLSVLGSLKLIVPHIIPLIAEKL-NH2 [Caerin 1.1-LC PHIIP] | criterion not met |
| GLLSVLGSLKKIVPHVVPWIAKKL-NH2 [Caerin 1.1-LC 11K.12K.19W] | criterion not met |
| GLLSVLKSLKKIVPHVVPKIAEKL-NH2 [Caerin 1.1-LC 7.11.19K] | criterion met |

====

system: HaCaT human keratinocytes; format: cell-based; conditions: 24 h
Ends that are not written are not given here.
attribute.measured: IC50 (µM)

| substance | endpoint.value |
| --- | --- |
| GLLSVLGSLKLIVPHVVPLIAEKL-NH2 [Caerin 1.1-LC] | 61.2 |

====

Test system: horse red blood cells
Assay: Haemolysis assay
Type: cell-based
Settings: concentration inducing 10% haemolysis of horse erythrocytes; 4% (v/v) in PBS, 2 h, 37 °C, absorbance 570 nm; no haemolysis at maximum testing concentration (128 μM) recorded as 256 μM
Method: The peptide cytotoxicity against mammalian erythrocytes was evaluated by haemolysis assay on horse red blood cells (E&O Laboratories Ltd., Falkirk, UK). Fresh horse blood was washed three times with PBS and resuspended to a final concentration of 4% (v/v) in PBS. […] The absorbance of the supernatants was detected at 570 nm. The percentage haemolysis was calculated by following the equationPercentage Haemolysis = (AbsSample − AbsBlank)/(AbsPositive − AbsBlank) × 100%
Ends that are not written are not given here.
# HC10 annotations

| substance | HC10 (µM) |
| --- | --- |
| GLLSVLGSLKLIVPRVVPLIAEKL-NH2 [Caerin 1.1-LC PRVVP] | 25.8 |
| GLLSVLGSLKKIVPHVVPLIAKKL-NH2 [Caerin 1.1-LC 11K.22K] | 10.3 |
| GLLSVLGSLKLIVPHLLPLIAEKL-NH2 [Caerin 1.1-LC PHLLP] | 1.6 |
| GLLSVLGSLKLIVPHWWPLIAEKL-NH2 [Caerin 1.1-LC PHWWP] | 256 |
| GLLSVLGSLKLIVPHVVPLIAEKL-NH2 [Caerin 1.1-LC] | 37.5 |

====

tested on: K. pneumoniae ATCC BAA-2342; assay type: cell-based, Klebsiella pneumoniae
Ends that are not written are not given here.
# MBC, K. pneumoniae (ATCC BAA-2342) annotations

| substance | MBC, K. pneumoniae (ATCC BAA-2342) |
| --- | --- |
| GLLSVLGSLKLIVAHVVALIAEKL-NH2 [Caerin 1.1-LC 2P-2A] | >128 µM |
| GLLSVLGSLKLIVPGGGPLIAEKL-NH2 [Caerin 1.1-LC PGGGP] | >128 µM |
| GLLSVLGSLKKIVPKAVPKIAEKL-NH2 [Caerin 1.1-LC 11K.19K.PKAVP] | >128 µM |

====

# MIC, E. coli (ATCC BAA-2340) annotations
system: E. coli ATCC BAA-2340; format: cell-based, Escherichia coli
Ends that are not written are not given here.

| substance | unit.annotation | censoring.operator | MIC, E. coli (ATCC BAA-2340) |
| --- | --- | --- | --- |
| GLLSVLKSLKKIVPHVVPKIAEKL-NH2 [Caerin 1.1-LC 7.11.19K] | µM | = | 2 |
| GLLSVLGSLKLIVAHVVALIAEKL-NH2 [Caerin 1.1-LC 2P-2A] | µM | > | 128 |
| GLLSVLGSLKKIVPKAVPKIAEKL-NH2 [Caerin 1.1-LC 11K.19K.PKAVP] | µM | = | 8 |
| GLLSVLGSLKLIVPKVVPLIAEKL-NH2 [Caerin 1.1-LC PKVVP] | µM | = | 2 |
| GLLSVLGSLKKIVPHVVPLIAEKL-NH2 [Caerin 1.1-LC 11K] | µM | = | 2 |
| GLLSVLGSLKKIVPHVVPWIAKKL-NH2 [Caerin 1.1-LC 11K.12K.19W] | µM | = | 2 |
| GLLSVLGSLKLIVPHIIPLIAEKL-NH2 [Caerin 1.1-LC PHIIP] | µM | = | 4 |
| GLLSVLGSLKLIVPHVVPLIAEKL-NH2 [Caerin 1.1-LC] | µM | = | 8 |

The measurements presented in this section are drawn from paper PMC12655529.
